- MEASURED_ON: TAP1/TAP2 heterodimer (Homo sapiens, UniProt Q03518+Q03519)
- Sequence (Q03518 1-748): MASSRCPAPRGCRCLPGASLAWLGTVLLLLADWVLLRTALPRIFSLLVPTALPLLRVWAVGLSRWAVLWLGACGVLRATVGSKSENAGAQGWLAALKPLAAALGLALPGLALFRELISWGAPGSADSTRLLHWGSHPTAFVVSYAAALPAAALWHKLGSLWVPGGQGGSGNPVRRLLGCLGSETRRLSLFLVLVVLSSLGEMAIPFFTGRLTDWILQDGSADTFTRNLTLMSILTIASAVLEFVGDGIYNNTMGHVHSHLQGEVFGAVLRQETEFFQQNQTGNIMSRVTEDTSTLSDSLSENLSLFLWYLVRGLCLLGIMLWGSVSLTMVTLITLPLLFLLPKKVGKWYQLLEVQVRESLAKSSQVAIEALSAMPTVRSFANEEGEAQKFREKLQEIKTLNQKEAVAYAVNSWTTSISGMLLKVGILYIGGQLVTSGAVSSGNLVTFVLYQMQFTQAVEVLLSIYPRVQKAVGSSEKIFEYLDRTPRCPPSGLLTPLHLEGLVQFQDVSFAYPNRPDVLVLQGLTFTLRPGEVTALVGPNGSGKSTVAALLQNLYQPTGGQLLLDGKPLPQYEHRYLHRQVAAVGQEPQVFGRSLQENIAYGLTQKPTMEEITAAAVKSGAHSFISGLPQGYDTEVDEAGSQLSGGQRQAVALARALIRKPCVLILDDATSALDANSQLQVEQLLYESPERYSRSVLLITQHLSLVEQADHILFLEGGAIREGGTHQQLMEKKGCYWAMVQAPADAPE
- Sequence (Q03519 1-686 L359K/V379I): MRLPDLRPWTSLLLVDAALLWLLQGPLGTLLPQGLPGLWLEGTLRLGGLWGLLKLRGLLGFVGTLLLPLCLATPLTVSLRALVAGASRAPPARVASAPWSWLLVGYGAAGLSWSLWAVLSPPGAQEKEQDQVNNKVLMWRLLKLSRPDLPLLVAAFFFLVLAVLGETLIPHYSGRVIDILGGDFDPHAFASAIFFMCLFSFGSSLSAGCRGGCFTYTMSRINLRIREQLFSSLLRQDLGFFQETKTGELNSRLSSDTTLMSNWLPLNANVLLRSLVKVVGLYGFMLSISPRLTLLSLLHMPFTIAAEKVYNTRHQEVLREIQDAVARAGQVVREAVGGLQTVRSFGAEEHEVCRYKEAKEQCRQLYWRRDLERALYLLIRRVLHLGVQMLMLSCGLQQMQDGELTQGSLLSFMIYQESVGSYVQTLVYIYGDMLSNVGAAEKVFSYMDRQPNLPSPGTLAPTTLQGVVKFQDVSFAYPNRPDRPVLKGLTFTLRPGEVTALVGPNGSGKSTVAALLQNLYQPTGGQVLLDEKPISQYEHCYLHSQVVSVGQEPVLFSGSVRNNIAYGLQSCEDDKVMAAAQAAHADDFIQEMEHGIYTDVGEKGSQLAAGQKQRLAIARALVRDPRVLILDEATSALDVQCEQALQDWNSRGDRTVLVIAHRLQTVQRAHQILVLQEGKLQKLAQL
- EXPERIMENT: competition with transport of 125I-Peptide RRYQNSTEL in TAP1/TAP2 transfectants
- Assay type: cell-based
- CONDITION_INFO: unlabeled peptide against transport of 125I-Peptide RRYQNSTEL, read-out: median inhibitory concentration (IC50)
pIC50: −log10 of the molar value.
QUANTITY_NAME: pIC50

{"MONOMER_SEQUENCE": "RRYQNSTEL [Peptide RRYQNSTEL]", "OBS_VALUE": "~6.82"}

These entries and their values trace back to patent US6284879A.
